Task for the reader: assign each of the following binders its reported residual binding, % of no competitor.
# MEASURED_TARGET: T1, cMetECDHis (human, UniProt P08581 25-932, limits assumed, biotinylated in the cross-block ELISA of Example 17)
# T1 construct: Expressed in HEK-293F cells; also called soluble cMetECDHis; biotinylated cMetECDHis
# EXPERIMENTAL_PROTOCOL: cross-block ELISA; competitor 008
Give bare numbers, in %.

Record request: residual binding, % of no competitor value, item anti-c-Met HuMab 006 (IgG1) (antibody, V domains shown, also called TH1016-006; PC1016-006) VH: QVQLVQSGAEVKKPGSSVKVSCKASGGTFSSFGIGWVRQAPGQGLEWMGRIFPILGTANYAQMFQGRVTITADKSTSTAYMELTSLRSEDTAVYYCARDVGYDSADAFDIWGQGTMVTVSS VL: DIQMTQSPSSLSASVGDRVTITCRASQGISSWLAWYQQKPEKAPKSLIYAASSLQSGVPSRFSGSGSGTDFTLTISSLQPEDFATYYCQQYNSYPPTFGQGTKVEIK
58.8

Record request: residual binding, % of no competitor value, item anti-c-Met HuMab 045 (IgG1) (antibody, V domains shown, also called TH1016-045; PC1016-045) VH: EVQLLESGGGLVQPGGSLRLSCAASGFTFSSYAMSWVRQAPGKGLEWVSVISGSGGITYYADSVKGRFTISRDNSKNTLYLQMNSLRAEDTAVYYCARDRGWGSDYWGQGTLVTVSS VL: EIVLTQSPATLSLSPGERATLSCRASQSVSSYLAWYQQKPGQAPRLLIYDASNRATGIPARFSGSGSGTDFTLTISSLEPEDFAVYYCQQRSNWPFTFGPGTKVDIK
98.5

***
Record request: residual binding, % of no competitor value, item anti-c-Met HuMab 098 (IgG1) (antibody, V domains shown, also called TH1016-098; PC1016-098) VH: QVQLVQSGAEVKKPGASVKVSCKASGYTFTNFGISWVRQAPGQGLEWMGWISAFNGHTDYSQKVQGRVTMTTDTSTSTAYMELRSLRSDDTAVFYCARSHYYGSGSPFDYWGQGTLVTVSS VL: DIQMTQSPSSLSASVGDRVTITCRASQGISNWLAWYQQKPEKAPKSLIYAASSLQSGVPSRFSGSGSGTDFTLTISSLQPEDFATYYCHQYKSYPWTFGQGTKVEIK
99.8

The values you see were collected from patent US20150329642A1.
